Molecular target: T1, SPSB2 26-221 SPRY (domain begin residue: 26, domain end residue: 221), Q99619
T1 chain: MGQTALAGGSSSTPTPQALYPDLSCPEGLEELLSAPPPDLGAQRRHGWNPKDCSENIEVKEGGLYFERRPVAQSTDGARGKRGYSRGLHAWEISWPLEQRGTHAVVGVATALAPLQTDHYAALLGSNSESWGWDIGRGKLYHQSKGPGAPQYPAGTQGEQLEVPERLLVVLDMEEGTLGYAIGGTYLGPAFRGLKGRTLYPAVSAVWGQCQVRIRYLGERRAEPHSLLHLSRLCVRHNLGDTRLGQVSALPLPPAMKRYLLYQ
Assay: phage ELISA signal ratio (GST-PRM binding over GST background); higher = stronger binding of peptide-phage to the PRM
Recorded measurements of phage ELISA signal ratio, one per entry
endpoint_label: phage ELISA signal ratio

{"columns": ["binder", "endpoint_label", "observed_value"],
 "data": [
  ["MDFTDVNGNLLNAFTA", "phage ELISA signal ratio", 38.3],
  ["AGPDWNHNRLTFNHPQ", "phage ELISA signal ratio", 35.2],
  ["YEEFLDLNSNLQGLKT", "phage ELISA signal ratio", 12.3],
  ["PARDINNNAATAYINV", "phage ELISA signal ratio", 39.5]
]}
